- PROCEDURE_TEXT: solvent given as SMILES
- SETUP_CONDITIONS: in CCCCCC
VALUE_TYPE: fluorescence lifetime
Number first, unit second: that is the form wanted.

CC(=O)c1ccc2ccc3cccc4ccc1c2c34 :: 6.56 ns
C/C=C/c1ccc(OC)c(OC)c1 :: 3.7 ns
CCCCc1ccc2ccc3c(CCCC)ccc4ccc1c2c43 :: 57.8 ns

Query string: # input molecule: CC1=N/C(=C\c2cccc(N(C)C)c2)C(=O)N1C ; wanted: its fluorescence lifetime
Result string: 22.5 ns

Query string: # input molecule: c1ccc(-c2cc(-c3ccc4ccc5c(-c6ccnc(-c7ccccn7)c6)ccc6ccc3c4c65)ccn2)nc1 ; wanted: its fluorescence lifetime
Result string: 2.6 ns

Query string: # input molecule: c1ccc(-c2ccc(-c3ccc(N(c4ccccc4)c4ccccc4)cc3)c3nsnc23)cc1 ; wanted: its fluorescence lifetime
Result string: 6.77 ns

Query string: # input molecule: CN(C)c1ccc(/C=C/C=C2\CC/C(=C\C=C\c3ccc(N(C)C)cc3)C2=O)cc1 ; wanted: its fluorescence lifetime
Result string: 0.86 ns

Query string: # input molecule: c1ccc2cc3cc(-c4cc(-c5nccs5)nc(-c5nccs5)c4)ccc3cc2c1 ; wanted: its fluorescence lifetime
Result string: 3.35 ns

Query string: # input molecule: CCC1=C(C)C2=C(C)c3c(C)c(CC)c(C)n3[B-](F)(F)[N+]2=C1C ; wanted: its fluorescence lifetime
Result string: 5.9 ns

Query string: # input molecule: CC1=C2C=CC(C)=[N+]2[B-](F)(F)n2cccc21 ; wanted: its fluorescence lifetime
Result string: 6.61 ns

Query string: # input molecule: c1ccc(-n2cccc2)cc1 ; wanted: its fluorescence lifetime
Result string: 3.5 ns
